Task for the reader: assign each of the following molecules its reported log10(IC50).
# Target: human PAR4 (Homo sapiens, UniProt Q96RI0)
# Sequence (Q96RI0 18-385): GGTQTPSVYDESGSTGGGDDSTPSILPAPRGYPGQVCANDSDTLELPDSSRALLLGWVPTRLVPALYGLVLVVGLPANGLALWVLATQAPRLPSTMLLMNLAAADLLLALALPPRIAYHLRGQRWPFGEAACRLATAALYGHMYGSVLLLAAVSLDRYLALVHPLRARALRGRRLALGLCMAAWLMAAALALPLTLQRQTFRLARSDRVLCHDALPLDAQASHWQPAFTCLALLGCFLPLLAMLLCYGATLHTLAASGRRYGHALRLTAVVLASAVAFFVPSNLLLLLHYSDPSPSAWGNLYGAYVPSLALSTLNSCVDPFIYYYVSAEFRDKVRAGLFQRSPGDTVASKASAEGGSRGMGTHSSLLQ
# Assay Details: PAR4 FLIPR assay: antagonism of agonist-peptide-induced calcium mobilization in PAR4-expressing HEK293 cells
# Run Conditions: H-Ala-Phe(4-F)-[…]NH2-induced intracellular calcium mobilization, 11-point curves
Note the log scale: values are log10 of IC50 expressed in nM.

Consider the reported log10(IC50) for these molecules:
Given the entry COc1cnc2c(-c3nc4cc(F)c(O[C@@H](C)[C@@H](C)OC(=O)Nc5cnc(CO)nc5)nc4s3)cc(C)cc2n1 , report its measured log10(IC50).
0.23

Given the entry COc1cnc2c(-c3nc4cc(F)c(O[C@@H](C)[C@@H](C)OC(=O)Nc5cnc(OCCC(C)(C)O)nc5)nc4s3)cc(C)cc2n1 , report its measured log10(IC50).
1.11

Given the entry COc1cnc2c(-c3nc4cc(F)c(OC[C@@H](C)OC(=O)Nc5ccc(C#N)nc5)cc4s3)cc(C)cc2n1 , report its measured log10(IC50).
0.43

Given the entry COc1cnc2c(-c3nc4c(C)cc(OC[C@@H](C)OC(=O)Nc5cnc(C)nc5)nc4s3)cc(C)cc2n1 , report its measured log10(IC50).
0.91

Given the entry COc1cnc2c(-c3nc4cc(F)c(O[C@@H](C)[C@@H](C)OC(=O)Nc5ccc(CC(C)(C)O)nc5)cc4s3)cc(C)cc2n1 , report its measured log10(IC50).
-0.05

Given the entry COC(=O)c1cccc2nc(-c3cc(C)cc4nc(OC(F)F)cnc34)sc12 , report its measured log10(IC50).
1.63

Next molecule, log10(IC50) to be filled in.
Given the entry COCc1cnc2c(-c3nc4c(C)cc(OCCNS(=O)(=O)c5ccc(F)cc5)cc4s3)cc(F)cc2n1 , report its measured log10(IC50).
-0.05

* * *

# Target: human PAR4 (Homo sapiens, UniProt Q96RI0)
# Assay Details: PAR4 FLIPR assay: antagonism of agonist-peptide-induced calcium mobilization in PAR4-expressing HEK293 cells
# Run Conditions: H-Ala-Phe(4-F)-[…]NH2-induced intracellular calcium mobilization, 11-point curves
Task for the reader: assign each of the following compounds its reported IC50.
Numbers only, in nM.

Given the entry COc1ccc2oc(-c3cc(C)cc4nc(OC(F)F)cnc34)cc2c1OC [Example 6] , report its measured IC50.
130

Given the entry COc1cnc2c(-c3nc4cc(F)c(O[C@@H](C)[C@@H](C)OC(=O)Nc5ccc(CCO)nc5)nc4s3)cc(Cl)cc2c1 [Example 781] , report its measured IC50.
6

Next compound, IC50 to be filled in.
Given the entry COc1cnc2c(-c3nc4cc(F)c(OC[C@@H](C)OC(=O)Nc5ccc(C(=O)N(C)CC(C)(C)O)nc5)cc4s3)cc(C)cc2n1 [Example 474] , report its measured IC50.
11

* * *

# Target: human PAR4 (Homo sapiens, UniProt Q96RI0)
# Assay Details: PAR4 FLIPR assay: antagonism of agonist-peptide-induced calcium mobilization in PAR4-expressing HEK293 cells
# Run Conditions: H-Ala-Phe(4-F)-[…]NH2-induced intracellular calcium mobilization, 11-point curves
Parameter: pIC50
Numbers only, as −log10 of the molar value.

Consider the reported pIC50 for these compounds:
Given the entry COc1cnc2c(-c3nc4cc(F)c(OC)nc4s3)cc(C)cc2n1 [Example 182] , report its measured pIC50.
7.66

Given the entry COCc1cnc2c(-c3nc4c(C)c(C)c(OCC(C)(C)O)cc4s3)cc(C)cc2n1 [Example 319] , report its measured pIC50.
8.14

Next compound, pIC50 to be filled in.
Given the entry COc1cnc2c(-c3nc4c(C(F)(F)F)cc(OCCNS(=O)(=O)c5ccc(F)cc5)cc4s3)cc(C)cc2n1 [Example 90] , report its measured pIC50.
7.08

* * *

# Target: human PAR4 (Homo sapiens, UniProt Q96RI0)
# Construct: expressed in transfected cells; host or cells: HEK293 PAR4 Clone 1.2A (BMS Arctic ID 383940)
# Assay Details: PAR4 FLIPR assay: antagonism of agonist-peptide-induced calcium mobilization in PAR4-expressing HEK293 cells
# Type: cell-based
# Run Conditions: H-Ala-Phe(4-F)-[…]NH2-induced intracellular calcium mobilization, 11-point curves
Parameter: pIC50
Numbers only, as −log10 of the molar value.

Consider the reported pIC50 for these compounds:
Given the entry CC[C@H](COc1cc2sc(-c3cc(C)cc4nc(OC)cnc34)nc2cc1F)OC(=O)Nc1cccnc1 [Example 517] , report its measured pIC50.
8.96

Given the entry COc1cnc2c(-c3nc4cc(F)c(O[C@@H](C)[C@@H](C)OC(=O)Nc5cnc(C(=O)NCC6(O)CCC6)nc5)cc4s3)cc(C)cc2n1 [Example 463] , report its measured pIC50.
9.15

Next compound, pIC50 to be filled in.
Given the entry CCOc1cnc2c(-c3nc4cc(F)c(O[C@@H](C)[C@@H](C)OC(=O)Nc5ccc(C(=O)NCC(C)(C)O)nc5)cc4s3)cc(C)cc2n1 [Example 527] , report its measured pIC50.
8.85
